Biological target: zif268 DBD R18Q (QE) (UniProt P08046 331-420, R349Q)
Assay: competition EMSA (QuMFRA); 30 mM Tris-HCl pH 8.0, 50 mM NaCl, 0.1 mg/ml BSA, 3 mM DTT, 20 uM ZnSO4, 5 ug/ml poly(dI-dC), 1 h on ice; 10% polyacrylamide gel
Field: binding signal. Provide a value for each of the binders that follow.

### Prompt # input binder: Zif_3 (CC) (dsDNA) DNA 1: TCGAGGTCGACGGTATCGCGTGGGCCCTCCACTAGTTCTAGAGCGGCCGCCAC DNA 2: GTGGCGGCCGCTCTAGAACTAGTGGAGGGCCCACGCGATACCGTCGACCTCGA ; wanted: its binding signal
### Response 2.17 Ka relative to CG

### Prompt # input binder: Zif_5 (AA) (dsDNA) DNA 1: TCGAGGTCGACGGTATCGCGTGGGAACTCCACTAGTTCTAGAGCGGCCGCCAC DNA 2: GTGGCGGCCGCTCTAGAACTAGTGGAGTTCCCACGCGATACCGTCGACCTCGA ; wanted: its binding signal
### Response 1.36 Ka relative to CG

### Prompt # input binder: Zif_2 (CA) (dsDNA) DNA 1: TCGAGGTCGACGGTATCGCGTGGGCACTCCACTAGTTCTAGAGCGGCCGCCAC DNA 2: GTGGCGGCCGCTCTAGAACTAGTGGAGTGCCCACGCGATACCGTCGACCTCGA ; wanted: its binding signal
### Response 1.5 Ka relative to CG

### Prompt # input binder: Zif_4 (AG) (dsDNA) DNA 1: TCGAGGTCGACGGTATCGCGTGGGAGCTCCACTAGTTCTAGAGCGGCCGCCAC DNA 2: GTGGCGGCCGCTCTAGAACTAGTGGAGCTCCCACGCGATACCGTCGACCTCGA ; wanted: its binding signal
### Response 1.3 Ka relative to CG

### Prompt # input binder: Zif_6 (AC) (dsDNA) DNA 1: TCGAGGTCGACGGTATCGCGTGGGACCTCCACTAGTTCTAGAGCGGCCGCCAC DNA 2: GTGGCGGCCGCTCTAGAACTAGTGGAGGTCCCACGCGATACCGTCGACCTCGA ; wanted: its binding signal
### Response 1.93 Ka relative to CG
